Procedure details: NCI Yeast Anticancer Drug Screen. Data for the mec2-1 strain (AID 157)
Condition description: S. cerevisiae mec2-1 strain, at 50.0 µM, hits give high values
About 79,000 compounds went through this panel and 15% of them were active in at least one assay; those are over-represented in the sample as a whole.
Quantity name: growth inhibition (%)

compound=CC(=O)OCC(=O)[C@@]1(O)CC[C@H]2[C@@H]3CC[C@H]4[C@H](Br)C(=O)CC[C@]4(C)[C@H]3C(=O)C[C@@]21C quantity_name="growth inhibition" unit_abbreviation=% test_result=-33.1
compound=COc1ccc(-c2nc(N)nc3c2CN(CCC(=O)O)C3=O)cc1 quantity_name="growth inhibition" unit_abbreviation=% test_result=-18.2
compound=CCOC(=O)/C=C\C(=O)O.[Mn] quantity_name="growth inhibition" unit_abbreviation=% test_result=-21.4
compound=Cc1cccc(C(=O)c2ccc(C)cc2C)c1 quantity_name="growth inhibition" unit_abbreviation=% test_result=6.65
compound="O=C(O)C(Cc1ccccc1)N1C(=O)c2ccccc2C1=O (centres undefined)" quantity_name="growth inhibition" unit_abbreviation=% test_result=-17.5
compound=COc1ccc(C(=O)c2ccc(OC)cc2)cc1 quantity_name="growth inhibition" unit_abbreviation=% test_result=-27.1
compound=CCCCCc1ccccn1 quantity_name="growth inhibition" unit_abbreviation=% test_result=19.1
compound="O=C(CC1C(=O)Nc2ccccc2S1(=O)=O)Nc1cc(Cl)ccc1Cl (centres undefined)" quantity_name="growth inhibition" unit_abbreviation=% test_result=-30.8
compound="CNC1C(CO)OC(OC)C1O (centres undefined)" quantity_name="growth inhibition" unit_abbreviation=% test_result=12
compound="NC(C(=O)O)c1ccccc1 (centres undefined)" quantity_name="growth inhibition" unit_abbreviation=% test_result=-23.4
compound=CCCCN(CCCC)c1ccc(S(=O)(=O)c2ccc(N(CCCC)CCCC)cc2)cc1 quantity_name="growth inhibition" unit_abbreviation=% test_result=4.95
compound=Cc1ccc(S(=O)(=O)N2CCSCCSCCSCCSCC2)cc1 quantity_name="growth inhibition" unit_abbreviation=% test_result=-0.1
compound="C=CCOC(=O)NC(CCC(N)=O)C(=O)O (centres undefined)" quantity_name="growth inhibition" unit_abbreviation=% test_result=1.1
compound="COc1ccc(-c2c3c(n(C4OC(COC(C)=O)C(OC(C)=O)C(OC(C)=O)C4OC(C)=O)c(=S)c2C#N)CCC3)cc1 (centres undefined)" quantity_name="growth inhibition" unit_abbreviation=% test_result=35
compound=Cn1nc(-c2ccccc2)c2c(/C=C/c3ccc(F)cc3)onc2c1=O quantity_name="growth inhibition" unit_abbreviation=% test_result=-17.9
compound=c1ccc2c(c1)ccc1c2ccc2c1cc1ccccn12 quantity_name="growth inhibition" unit_abbreviation=% test_result=7.45
compound=CCOC(=O)c1c(-c2ccc([N+](=O)[O-])cc2)c(/C=N\O)n(-c2ccccc2)c1C quantity_name="growth inhibition" unit_abbreviation=% test_result=6.7
compound=CCCC(=O)Nc1ccc2c(ccn2COC)c1 quantity_name="growth inhibition" unit_abbreviation=% test_result=-2.2
compound=O=C(CI)Nc1ccc(Cl)c(Cl)c1 quantity_name="growth inhibition" unit_abbreviation=% test_result=99.3
compound="CC(NC(=O)NC(C)(C)C)c1ccccc1 (centres undefined)" quantity_name="growth inhibition" unit_abbreviation=% test_result=-12.9
compound=Cc1cccc2c1ccc1ccccc12 quantity_name="growth inhibition" unit_abbreviation=% test_result=6
compound=Cc1ccc2c(c1)C(c1ccccc1)(c1ccccc1)OC2 quantity_name="growth inhibition" unit_abbreviation=% test_result=41.4
compound="O=C1OC(c2ccccc2)(C2(c3ccccc3)C=C(c3ccccc3)C(=O)O2)C=C1c1ccccc1 (centres undefined)" quantity_name="growth inhibition" unit_abbreviation=% test_result=-3
compound=C(=C\c1nc2ccccc2nc1/C=C/c1ccccc1)/c1ccccc1 quantity_name="growth inhibition" unit_abbreviation=% test_result=-9.4
